experiment-description: Phase I study Part A, single IV dose, plasma pharmacokinetics
Assay type: in vivo, healthy male and female subjects
condition-summary: both sexes, human, plasma, iv, 600 mg, Treatment 600 mg Ceftaroline fosamil; Geo mean
readout-name: half-life (h)
Express your answer in h, writing the number without its unit.

1) CCO/N=C(\C(=O)N[C@@H]1C(=O)N2C(C(=O)[O-])=C(Sc3nc(-c4cc[n+](C)cc4)cs3)CS[C@H]12)c1nsc(NP(=O)(O)O)n1 ... 0.084

The measured half-life associated with CCO/N=C(\C(=O)N[C@@H]1C(=O)N2C(C(=O)[O-])=C(Sc3nc(-c4cc[n+](C)cc4)cs3)CS[C@H]12)c1nsc(N)n1 reads 2.51

###

experiment-description: Phase I study Part A, single IV dose, plasma pharmacokinetics
Format: in vivo, healthy male and female subjects
condition-summary: both sexes, human, plasma, iv, 600 mg, Treatment 600 mg NXL-104 + Ceftaroline fosamil 600 mg; Geo mean; read-out: AUC0-inf
AUC(0-inf) for assorted molecules
Your answer is read as ng·h/mL, so omit the unit and give the number.

Solved entries:
1) CCO/N=C(\C(=O)N[C@@H]1C(=O)N2C(C(=O)[O-])=C(Sc3nc(-c4cc[n+](C)cc4)cs3)CS[C@H]12)c1nsc(NP(=O)(O)O)n1 ... 2160
2) CCO/N=C(\C(=O)N[C@@H]1C(=O)N2C(C(=O)[O-])=C(Sc3nc(-c4cc[n+](C)cc4)cs3)CS[C@H]12)c1nsc(N)n1 ... 60000

# AUC(0-inf) of NC(=O)[C@@H]1CC[C@@H]2CN1C(=O)N2OS(=O)(=O)[O-].[Na+] = 51200

###

experiment-description: Phase I study Part A, single IV dose, plasma pharmacokinetics
Assay type: in vivo, healthy male and female subjects
condition-summary: both sexes, human, plasma, iv, 600 mg, Treatment 600 mg NXL-104; Geo mean; read-out: AUC0-inf
readout-name: AUC(0-inf) (ng·h/mL)
# value in ng·h/mL; strip the unit string

# AUC(0-inf) (molecule: NC(=O)[C@@H]1CC[C@@H]2CN1C(=O)N2OS(=O)(=O)[O-].[Na+] [NXL-104] ) is 51900

###

Measured Cmax of individual entries
experiment-description: Phase I study Part A, single IV dose, plasma pharmacokinetics
Format: in vivo, healthy male and female subjects
condition-summary: both sexes, human, plasma, iv, 600 mg, Treatment 600 mg Ceftaroline fosamil; Geo mean; read-out: Cmax
Respond numerically; units are ng/mL and should not be typed.

1. CCO/N=C(\C(=O)N[C@@H]1C(=O)N2C(C(=O)[O-])=C(Sc3nc(-c4cc[n+](C)cc4)cs3)CS[C@H]12)c1nsc(NP(=O)(O)O)n1 ... 2110

The compound listed as CCO/N=C(\C(=O)N[C@@H]1C(=O)N2C(C(=O)[O-])=C(Sc3nc(-c4cc[n+](C)cc4)cs3)CS[C@H]12)c1nsc(N)n1 has a reported Cmax of 24800

###

experiment-description: Phase I study Part A, single IV dose, plasma pharmacokinetics
Type: in vivo, healthy male and female subjects
condition-summary: both sexes, human, plasma, iv, 600 mg, Treatment 600 mg NXL-104 + Ceftaroline fosamil 600 mg; Geo mean
half-life values by entry
Give the value, in units of h, as a plain number.

Example entries begin here.
1) NC(=O)[C@@H]1CC[C@@H]2CN1C(=O)N2OS(=O)(=O)[O-].[Na+] ... 1.63
2) CCO/N=C(\C(=O)N[C@@H]1C(=O)N2C(C(=O)[O-])=C(Sc3nc(-c4cc[n+](C)cc4)cs3)CS[C@H]12)c1nsc(N)n1 ... 2.47

Now for a further compound.
The measured half-life associated with CCO/N=C(\C(=O)N[C@@H]1C(=O)N2C(C(=O)[O-])=C(Sc3nc(-c4cc[n+](C)cc4)cs3)CS[C@H]12)c1nsc(NP(=O)(O)O)n1 reads 0.055
